System: Staphylococcus aureus
Assay: Antibacterial activity against multidrug resistant Staphylococcus aureus ATCC 33591 assessed as diameter of inhibition zone at 0.5 mg/ml incubated for 24 hrs by agar diffusion method
Assay type: functional
Condition: read-out: DIZ
Value type: zone of inhibition at 500 µg/mL
State the value, then name its unit.

CCn1cc(C(=O)O)c(=O)c2cc(F)c(N3CCNCC3)cc21 [NORFLOXACIN] = 26 mm
CCOC(=O)C1=C(N)OC(C)=C(C(C)=O)C12C(=O)Nc1ccc(S(=O)(=O)N3CCOCC3)cc12 (stereo not given) = 23 mm
CCOC(=O)/C(C#N)=C1\C(=O)Nc2ccc(S(=O)(=O)N3CCOCC3)cc21 = 25 mm
N#CC(C#N)=C1C(=O)Nc2ccc(S(=O)(=O)N3CCOCC3)cc21 = 24 mm
CC(=O)C1=C(c2ccccc2)OC(N)=C(C#N)C12C(=O)Nc1ccc(S(=O)(=O)N3CCOCC3)cc12 (stereo not given) = 26 mm

(Q) Can you share its zone of inhibition at 500 µg/mL? I mean this compound: CC(=O)C1=C(c2ccccc2)OC(N)=C(C#N)C12C(=O)Nc1ccc(S(=O)(=O)N3CCCCC3)cc12 (stereo not given)
(A) 26 mm

(Q) What would you report for CCOC(=O)C1=C(N)OC(c2ccccc2)=C(C(=O)OCC)C12C(=O)Nc1ccc(S(=O)(=O)N3CCCCC3)cc12 (stereo not given) ?
(A) 22 mm

(Q) Consider next the compound CCOC(=O)C1=C(N)OC(c2ccccc2)=C(C(C)=O)C12C(=O)Nc1ccc(S(=O)(=O)N3CCOCC3)cc12 (stereo not given) in the same way.
(A) 24 mm

(Q) Same again, this time with CC(=O)C1=C(C)OC(N)=C(C#N)C12C(=O)Nc1ccc(S(=O)(=O)N3CCOCC3)cc12 (stereo not given)
(A) 20 mm

(Q) Next record, please: CCOC(=O)C1=C(c2ccccc2)OC(N)=C(C#N)C12C(=O)Nc1ccc(S(=O)(=O)N3CCCCC3)cc12 (stereo not given)
(A) 25 mm

* * *

Test system: Escherichia coli
Assay: Antibacterial activity against Escherichia coli ATCC 25922 assessed as reduction in bacterial growth incubated for 1 day by paper disk diffusion method
Type: functional
Condition: ATCC 25922, 24 h
Reported MIC values are given for each entry in this list.
Entry rule: numbers only, all in µg/mL.

CCOC(=O)C1=C(N)OC(c2ccccc2)=C(C(C)=O)C12C(=O)Nc1ccc(S(=O)(=O)N3CCOCC3)cc12 (centres undefined) = 6.25

(Q) Fill in: MIC of CCOC(=O)C1=C(N)OC(c2ccccc2)=C(C(=O)OCC)C12C(=O)Nc1ccc(S(=O)(=O)N3CCCCC3)cc12 (centres undefined) is ___
(A) 8.88

(Q) One more compound: CCOC(=O)C1=C(N)OC(c2ccccc2)=C(C(C)=O)C12C(=O)Nc1ccc(S(=O)(=O)N3CCCCC3)cc12 (centres undefined)
(A) 17.8

(Q) Follow-up entry: CCOC(=O)C1=C(C)OC(N)=C(C#N)C12C(=O)Nc1ccc(S(=O)(=O)N3CCOCC3)cc12 (centres undefined)
(A) 31.2

* * *

Test system: Candida albicans
Assay: Antifungal activity against Candida albicans ATCC 10231 assessed as diameter of inhibition zone at 0.5 mg/ml incubated for 24 hrs by agar diffusion method
Type: functional
Condition: read-out: DIZ
# zone of inhibition at 500 µg/mL annotations
Your reply should be a number followed by the unit it is expressed in.

Past entries and their recorded results:
N#CC(C#N)=C1C(=O)Nc2ccc(S(=O)(=O)N3CCCCC3)cc21 = 16 mm
CCOC(=O)C1=C(N)OC(c2ccccc2)=C(C(C)=O)C12C(=O)Nc1ccc(S(=O)(=O)N3CCCCC3)cc12 (stereo unspecified) = 13 mm
C[C@@H]1[C@H](O)[C@@H](C)/C=C/C=C/C=C/C=C/C=C/C=C/C=C/[C@H](O[C@@H]2O[C@H](C)[C@@H](O)[C@H](N)[C@@H]2O)C[C@@H]2O[C@](O)(C[C@@H](O)C[C@@H](O)[C@H](O)CC[C@@H](O)C[C@@H](O)CC(=O)O[C@H]1C)C[C@H](O)[C@H]2C(=O)O = 22 mm
CCOC(=O)C1=C(N)OC(C)=C(C(C)=O)C12C(=O)Nc1ccc(S(=O)(=O)N3CCCCC3)cc12 (stereo unspecified) = 13 mm
CCOC(=O)C1=C(C)OC(N)=C(C#N)C12C(=O)Nc1ccc(S(=O)(=O)N3CCOCC3)cc12 (stereo unspecified) = 18 mm
CC(=O)C1=C(c2ccccc2)OC(N)=C(C#N)C12C(=O)Nc1ccc(S(=O)(=O)N3CCCCC3)cc12 (stereo unspecified) = 23 mm
CCOC(=O)C1=C(c2ccccc2)OC(N)=C(C#N)C12C(=O)Nc1ccc(S(=O)(=O)N3CCOCC3)cc12 (stereo unspecified) = 16 mm
CCOC(=O)C1=C(N)OC(c2ccccc2)=C(C(=O)OCC)C12C(=O)Nc1ccc(S(=O)(=O)N3CCOCC3)cc12 (stereo unspecified) = 14 mm

(Q) Quick check: zone of inhibition at 500 µg/mL of CCOC(=O)C1=C(N)OC(c2ccccc2)=C(C(C)=O)C12C(=O)Nc1ccc(S(=O)(=O)N3CCOCC3)cc12 (stereo unspecified) ?
(A) 24 mm

(Q) Ok, now CC(=O)C1=C(c2ccccc2)OC(N)=C(C#N)C12C(=O)Nc1ccc(S(=O)(=O)N3CCOCC3)cc12 (stereo unspecified)
(A) 23 mm

(Q) Thanks! And CCOC(=O)C1=C(C)OC(N)=C(C(=O)OCC)C12C(=O)Nc1ccc(S(=O)(=O)N3CCOCC3)cc12 (stereo unspecified) ?
(A) 13 mm

(Q) // repeat for CCOC(=O)C1=C(C)OC(N)=C(C#N)C12C(=O)Nc1ccc(S(=O)(=O)N3CCCCC3)cc12 (stereo unspecified) and report
(A) 15 mm

(Q) Field entry: CCOC(=O)C1=C(N)OC(c2ccccc2)=C(C(=O)OCC)C12C(=O)Nc1ccc(S(=O)(=O)N3CCCCC3)cc12 (stereo unspecified)
(A) 21 mm

(Q) Same lookup for CC(=O)C1=C(C)OC(N)=C(C#N)C12C(=O)Nc1ccc(S(=O)(=O)N3CCOCC3)cc12 (stereo unspecified) , please.
(A) 21 mm

(Q) Repeat with CCOC(=O)C1=C(C)OC(N)=C(C(=O)OCC)C12C(=O)Nc1ccc(S(=O)(=O)N3CCCCC3)cc12 (stereo unspecified)
(A) 12 mm

(Q) What do you have for "CCOC(=O)/C(C#N)=C1\C(=O)Nc2ccc(S(=O)(=O)N3CCOCC3)cc21" ?
(A) 23 mm

* * *

Tested on: Enterococcus faecalis
Assay: Bactericidal activity against Enterococcus faecalis ATCC 29212 incubated for 24 hrs followed by transferring to freshly prepared broth medium and measured after 24 hrs by broth microdilution assay
Type: functional
Condition: time 48 hrs
Value type: MBC

// known answers, use as guide
N#CC(C#N)=C1C(=O)Nc2ccc(S(=O)(=O)N3CCOCC3)cc21 = 11.5 µg/mL
CCOC(=O)C1=C(N)OC(c2ccccc2)=C(C(C)=O)C12C(=O)Nc1ccc(S(=O)(=O)N3CCOCC3)cc12 (stereo not given) = 25 µg/mL
CN(C)[C@@H]1C(O)=C(C(N)=O)C(=O)[C@@]2(O)C(O)=C3C(=O)c4c(O)cccc4[C@@](C)(O)[C@H]3C[C@@H]12 [TETRACYCLINE] = 37.5 µg/mL
CCOC(=O)C1=C(c2ccccc2)OC(N)=C(C#N)C12C(=O)Nc1ccc(S(=O)(=O)N3CCCCC3)cc12 (stereo not given) = 31.2 µg/mL
CC(=O)C1=C(C)OC(N)=C(C#N)C12C(=O)Nc1ccc(S(=O)(=O)N3CCOCC3)cc12 (stereo not given) = 26.6 µg/mL
CC(=O)C1=C(c2ccccc2)OC(N)=C(C#N)C12C(=O)Nc1ccc(S(=O)(=O)N3CCOCC3)cc12 (stereo not given) = 20 µg/mL
CCOC(=O)C1=C(N)OC(c2ccccc2)=C(C(=O)OCC)C12C(=O)Nc1ccc(S(=O)(=O)N3CCCCC3)cc12 (stereo not given) = 15.6 µg/mL
CCOC(=O)/C(C#N)=C1\C(=O)Nc2ccc(S(=O)(=O)N3CCOCC3)cc21 = 7.8 µg/mL
CC(=O)C1=C(c2ccccc2)OC(N)=C(C#N)C12C(=O)Nc1ccc(S(=O)(=O)N3CCCCC3)cc12 (stereo not given) = 43.7 µg/mL

Could you now consider this next compound?
(Q) Sample CCOC(=O)C1=C(N)OC(C)=C(C(C)=O)C12C(=O)Nc1ccc(S(=O)(=O)N3CCOCC3)cc12 (stereo not given) — what was its MBC?
(A) 17.6 µg/mL

* * *

System: Staphylococcus aureus
Assay: Bactericidal activity against Staphylococcus aureus ATCC 29213 incubated for 24 hrs followed by transferring to freshly prepared broth medium and measured after 24 hrs by broth microdilution assay
Type: functional
Condition: time 48 hrs
Measured MBC by item
Kindly format the answer as number then unit.

CC(=O)C1=C(c2ccccc2)OC(N)=C(C#N)C12C(=O)Nc1ccc(S(=O)(=O)N3CCCCC3)cc12 (stereo not drawn) = 58.6 µg/mL
CCOC(=O)C1=C(c2ccccc2)OC(N)=C(C#N)C12C(=O)Nc1ccc(S(=O)(=O)N3CCCCC3)cc12 (stereo not drawn) = 99.5 µg/mL

Now turn to the next molecule.
(Q) # get_value(readout='MBC', item= CCOC(=O)C1=C(N)OC(c2ccccc2)=C(C(C)=O)C12C(=O)Nc1ccc(S(=O)(=O)N3CCOCC3)cc12 (stereo not drawn) )
(A) 81.2 µg/mL
